# assayed target: Lysosomal acid lipase/cholesteryl ester hydrolase (Homo sapiens) (UniProt P38571)
# Sequence (whole entry): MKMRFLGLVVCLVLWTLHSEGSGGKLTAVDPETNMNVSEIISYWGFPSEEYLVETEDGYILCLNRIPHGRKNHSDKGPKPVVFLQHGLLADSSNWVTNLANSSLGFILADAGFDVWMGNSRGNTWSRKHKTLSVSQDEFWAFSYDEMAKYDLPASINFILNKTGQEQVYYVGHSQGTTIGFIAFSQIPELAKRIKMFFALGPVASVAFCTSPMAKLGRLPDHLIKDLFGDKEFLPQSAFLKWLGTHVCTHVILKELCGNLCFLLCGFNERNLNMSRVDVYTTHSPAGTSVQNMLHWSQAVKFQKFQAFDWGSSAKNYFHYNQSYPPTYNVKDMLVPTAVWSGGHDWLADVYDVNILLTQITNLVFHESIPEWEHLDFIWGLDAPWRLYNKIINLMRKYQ
# experiment notes: Inhibition of human LAL assessed as enzyme decarbamoylation rate constant at 10 uM after 30 mins by fluorescence assay
Reported values of Activity for individual entries
outcome measure: Activity

# smiles str, outcome measure, observed
rows = [
    ("O=C(Oc1nsnc1N1CCOCC1)N1CCOCC1", "Activity", "0.0043 min⁻¹"),
    ("O=C(Oc1nsnc1N1CCCCC1)N1CCCCC1", "Activity", "0.001 min⁻¹"),
    ("O=C(Oc1nsnc1N1CCCCC1)N1CCOCC1", "Activity", "0.003 min⁻¹"),
    ("O=C(Oc1nsnc1N1CCCC1)N1CCOCC1", "Activity", "0.0037 min⁻¹"),
    ("O=C(Oc1nsnc1N1CCCCCC1)N1CCCCC1", "Activity", "0.0013 min⁻¹"),
    ("O=C(Oc1nsnc1N1CCOCC1)N1CCCCC1", "Activity", "0.0016 min⁻¹"),
    ("O=C(Oc1nsnc1N1CCCC1)N1CCCCC1", "Activity", "0.0007 min⁻¹"),
    ("O=C(Oc1nsnc1N1CCCCCC1)N1CCOCC1", "Activity", "0.0042 min⁻¹"),
]

###

The following are reported IC50 results, target or system Lysosomal acid lipase/cholesteryl ester hydrolase (Homo sapiens, UniProt P38571).
outcome measure: IC50

# smiles str, observed
measured = [
    ("O=C(Oc1nsnc1N1CCCC1)N1CCOCC1", "473 nM"),
    ("O=C(Oc1nsnc1N1CCCC1)N1CCCCC1", "496 nM"),
    ("O=C(Oc1nsnc1N1CCCCC1)N1CCCCC1", "152 nM"),
]

###

# assayed target: Lysosomal acid lipase/cholesteryl ester hydrolase (Homo sapiens) (UniProt P38571)
# experiment notes: Inhibition of human LAL at 10 uM after 30 mins by fluorescence assay
Calls of active or inactive are those of the source. The rule behind the calls is not given here.
Outcome codes: True (active), False (inactive)

# molecule, qualitative label
records = [
    ("COC(=O)C(C)c1nsnc1N1CCOCC1 (racemic)", "True"),
    ("CCOC(=O)Cc1nsnc1N1CCOCC1", "False"),
    ("O=C(Cc1nsnc1N1CCOCC1)N1CCOCC1", "False"),
    ("COc1ccccc1OCC(CO)OC(N)=O (stereo not given)", "False"),
    ("COC(=O)C(CCc1ccccc1)c1nsnc1N1CCOCC1 (racemic)", "False"),
]

Data credit: ChEMBL document CHEMBL1155456
